The following compounds are listed with their measured IC50 values.
- targetDesc: Fructose-1,6-bisphosphatase 1 (Homo sapiens)
- Sequence (P09467 whole entry): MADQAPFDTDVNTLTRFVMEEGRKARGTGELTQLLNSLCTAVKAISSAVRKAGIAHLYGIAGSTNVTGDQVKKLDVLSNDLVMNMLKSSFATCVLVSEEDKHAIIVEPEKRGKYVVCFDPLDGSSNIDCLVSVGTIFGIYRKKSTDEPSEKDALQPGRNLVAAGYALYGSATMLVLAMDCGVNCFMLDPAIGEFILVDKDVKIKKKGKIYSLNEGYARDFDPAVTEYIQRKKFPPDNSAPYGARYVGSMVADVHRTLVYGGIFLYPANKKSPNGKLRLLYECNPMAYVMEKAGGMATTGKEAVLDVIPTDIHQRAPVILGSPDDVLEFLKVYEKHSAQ
Give the quantity in µM, number only.

smilestext=Nc1nc2c(s1)Cc1ccc(OCP(=O)(O)O)cc1-2 unitstring=µM resultnumber=112
smilestext=Nc1nc2c(s1)CCc1ccc(P(=O)(O)O)cc1-2 unitstring=µM resultnumber=9.32
smilestext=Nc1nc2c(s1)CCc1ccc(OCP(=O)(O)O)cc1-2 unitstring=µM resultnumber=19.1
smilestext=Nc1nc2c(s1)CCc1cccc(P(=O)(O)O)c1-2 unitstring=µM resultnumber=354

Prompt line: I am curious: what IC50 value has been reported for Nc1nc2c(s1)Cc1cc(OCP(=O)(O)O)ccc1-2 ?
Response line: 112

Prompt line: Also, Nc1nc2c(s1)CCCc1ccc(OP(=O)(O)O)cc1-2 please.
Response line: 0.022

Prompt line: Also, Nc1nc2c(s1)CCc1cccc(OP(=O)(O)O)c1-2 please.
Response line: 335

Prompt line: Also, Nc1nc2c(s1)CCCc1ccc(P(=O)(O)O)cc1-2 please.
Response line: 0.169
